Origin of values: paper PMC10364322

- Tested on: hiPSC-CMs (iCell-Cardiomyocytes^2)
- Settings: 10 µM; 72h
Recorded FPD (field-potential duration), % change from baseline, one value per entry.
Give the number; % is assumed, so skip it.

Molecule	Observed Result
C#Cc1cccc(Nc2ncnc3cc(OCCOC)c(OCCOC)cc23)c1 [Erlotinib]	16.4
CC(C)(Sc1cc(C(C)(C)C)c(O)c(C(C)(C)C)c1)Sc1cc(C(C)(C)C)c(O)c(C(C)(C)C)c1 [Probucol]	-10.2
CC1(C)S[C@@H]2[C@H](NC(=O)[C@H](N)c3ccc(O)cc3)C(=O)N2[C@H]1C(=O)O [Amoxicillin]	9.6
CC(=O)Oc1ccccc1C(=O)O [Aspirin]	14.6

Consider the record given below.
Task: Dear colleague, I am looking for the recorded FPD (field-potential duration), % change from baseline of the following molecule: C[C@H](CS)C(=O)N1CCC[C@H]1C(=O)O [Captopril]
Output: 14.8
